Exercise: state measured IC50 for each of the molecules provided.
- target_under_test: IRAK4 (Homo sapiens (Human), UniProt Q9NWZ3)
- Sequence (Q9NWZ3 whole entry): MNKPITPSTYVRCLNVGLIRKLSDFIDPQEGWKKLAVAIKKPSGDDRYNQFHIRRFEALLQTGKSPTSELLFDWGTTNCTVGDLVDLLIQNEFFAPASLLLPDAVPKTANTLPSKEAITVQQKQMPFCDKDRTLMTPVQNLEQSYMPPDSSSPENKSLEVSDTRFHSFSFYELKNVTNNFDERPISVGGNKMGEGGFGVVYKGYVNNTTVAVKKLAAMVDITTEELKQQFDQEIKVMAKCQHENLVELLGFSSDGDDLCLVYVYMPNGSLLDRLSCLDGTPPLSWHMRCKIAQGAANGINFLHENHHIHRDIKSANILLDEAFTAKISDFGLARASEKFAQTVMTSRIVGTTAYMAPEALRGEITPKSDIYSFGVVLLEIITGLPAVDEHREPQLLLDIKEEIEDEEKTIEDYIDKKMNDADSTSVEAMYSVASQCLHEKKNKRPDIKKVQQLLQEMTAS
- procedure_text: IRAK4 Kinase Assay
- Type: biochemical
- details: IMAP fluorescence polarization, 0.5 nM GST tagged IRAK4, 100 μM ATP, 30 minutes at 25° C.; read-out: IRAK4 IC50
Where a name gives a salt, the structure may show the parent alone.
Give just the number in nM; leave the unit off.

QUERY: Fill in the blank: the reported IC50 of N[C@@H]1[C@H](Nc2ccn3ncc(C(=O)Nc4ccsc4Cl)c3n2)CCCC1(F)F [Example 118, trifluoroacetate] is ____.
RESULT: 342

QUERY: Also N[C@@H]1[C@H](Nc2ccn3ncc(C(=O)Nc4cscc4C(F)F)c3n2)CCCC1(F)F [Example 121, trifluoroacetate] , if possible.
RESULT: 124

QUERY: Also O=C(Nc1ccsc1Cl)c1cnn2ccc(N3CC4CCC3CN4)nc12 (stereo not shown) [Example 134, trifluoroacetate] , if possible.
RESULT: 306

QUERY: Also O=C(Nc1ccccc1Br)c1cnn2ccc(N3CC4CCC3CN4)nc12 (stereo not shown) [Example 112, trifluoroacetate] , if possible.
RESULT: 955

QUERY: Also N[C@H]1CCCC[C@H]1Nc1ccn2ncc(C(=O)Nc3cn(CC(F)F)nc3C(F)(F)F)c2n1 [Example 292, trifluoroacetate] , if possible.
RESULT: 0.8

QUERY: Also CC(C)(C)n1cc(NC(=O)c2cnn3ccc(N[C@@H]4CCCC[C@@H]4N)nc23)c(C(F)(F)F)n1 [Example 294, trifluoroacetate] , if possible.
RESULT: 1

QUERY: Also Cn1cc(NC(=O)c2cnn3ccc(N4CC5CNCC4C5)nc23)c(C(F)(F)F)n1 (stereo not shown) [Example 82, trifluoroacetate] , if possible.
RESULT: 114
